Please provide measured Kd for the entries that follow.
target: T1, MAGI1-3/6 (MBP fusion of the third of the six PDZ domains of MAGI1) (mouse, UniProt Q6RHR9-1 613-752); experiment: SPR; conditions: both partners purified
T1 construct: source: E. coli BL21 DE3, purified (amylose column, Superdex 75 gel filtration)
T1 sequence (Q6RHR9 613-752): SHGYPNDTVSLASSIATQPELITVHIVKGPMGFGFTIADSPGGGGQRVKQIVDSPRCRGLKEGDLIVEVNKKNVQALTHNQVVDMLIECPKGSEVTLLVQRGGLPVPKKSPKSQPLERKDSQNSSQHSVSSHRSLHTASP
Ends that are not written are not given here. * marks the point of attachment. Biotin = O=C1N[C@H]2[C@H](CS[C@H]2CCCCC(=O)*)N1
The answer is to be given in µM; state only the numeric part.

Quick one: Kd of Biotin-GSGAGPETLV (also called ARHGAP6 short; source: synthetic peptide (JPT Peptide Technologies)) [ARHGAP6_05 (short peptide of Rho GTPase-activating protein 6: GSGAG and the last five residues)] ?
58

Please answer likewise for Biotin-GSGAGKETLV (also called NET1 short; source: synthetic peptide (JPT Peptide Technologies))
23

Please answer likewise for Biotin-KDECVIATEV (also called DLL1 long; source: synthetic peptide (JPT Peptide Technologies)) [DLL1_10 (long peptide of Delta-like protein 1: the last ten residues)]
238

Please answer likewise for Biotin-NPDALPETLV (also called ARHGAP6 long; source: synthetic peptide (JPT Peptide Technologies)) [ARHGAP6_10 (long peptide of Rho GTPase-activating protein 6: the last ten residues)]
41
